assay: yeast display, Sf9 membrane polyspecificity reagent, FACS + sequencing; frameworks hold sequencing errors
TEST READOUT: polyreactivity (PSR sort gate)

Solved cases (6 shown):
- RESIDUE SEQUENCE: "QVQLVESGGGLVQAGGSLRLSCAASGITFYHYAMGWYRQAPGKEREFVASITSSGGSTYYADSVKGRFTISRDNAKNTVYLQMNSLKPDDSAVYYCAARGYNPYGRKVGYLGQGTQVTVSS"
  polyreactivity (PSR sort gate): "high polyreactivity"
- RESIDUE SEQUENCE: "QVQLVESVGGLVQAGGILRLSCAPSGSTSYGNAMGWYRQAPAKVRELVAAISSSGSSTYYADSVKGRFTISRDNAKNTVYLQMNSLKPEDTAVYYCNKRRSHSYYSRRFDYWGQGTQVTVSS"
  polyreactivity (PSR sort gate): "high polyreactivity"
- RESIDUE SEQUENCE: "QVQLVESGGGLVQAGGSLRISCAASGFIFPWYTMGWYRQAPGKERELVAVINQSGGSTYYADSVKGRFTISRDNAKNTVYLQMNSLKPEDTAVYYCAARLVKQYYYWGQGTQVTVSS"
  polyreactivity (PSR sort gate): "high polyreactivity"
- RESIDUE SEQUENCE: "QVQLVESGGGLVQAGGSLRLSCAASGRIFEHYAMGWYRQAPGKERELVASISSGDRTNYADSVKGRFTISRDNAKNTVYLQMNSLKPEDTAVYYCNALQLYGKGKRVGFGYWGQGTQVTVSS"
  polyreactivity (PSR sort gate): "low polyreactivity"
- RESIDUE SEQUENCE: "QVQLVESGGCSVQAGGSLRLICAASGYTFYINAMGWYRPAPGKERELVAVITWSSGSTYYADSVKGRFTISRDNAKNTVYLQMYSLKAEDTAVYYCAADVTYEDGAWTIQYDYWGQGTQVTVSS"
  polyreactivity (PSR sort gate): "high polyreactivity"
- RESIDUE SEQUENCE: "QVQLVESGGGLVQAGGSLSLTCAASGITFPRNAMGWSRQAPGKERELVAAISARGGNTYYADSVKGRFTISRDNSKNTVYLQMNSLKPEDTAVYYCNALGSSYSEPSEYDYWGQGTQVTVSS"
  polyreactivity (PSR sort gate): "low polyreactivity"

Now consider a different sequence.
// polyreactivity (PSR sort gate) lookup, key: QVQLVESGGGLVQAGGSLRLSCAASGRIFYDNTMGWYRQAPGKERELVAAISVSGGRTYYADSVKGRFTISRDNAKNTVYLQLNSLKPEDTAVYYCAADRGGEYWGQGTQVTVSS high polyreactivity

====

experiment: yeast display, Sf9 membrane polyspecificity reagent, FACS + sequencing; frameworks hold sequencing errors

- RESIDUE SEQUENCE: "QGQLVESGGGLVQAGGSLRLSCAASGRIFAGNAMGWYRQAPGKDRELVAAISKSGRSTYYADSVKGRFTISRDNAKNTVYLQMNSLKPEDTAVYYCAKLYYPVSDQYDYYYWGQGTQVTVSS"
  polyreactivity (PSR sort gate): "low polyreactivity"
- RESIDUE SEQUENCE: "QVQLVESGGGLVQAGGSLRLSCAASGSIFYYNAMGWYRQAPGKERELVAAISFRASSTYYADSVKGRFTISRDNAKNTVYLQMNSLKPEDTAVYYCASSHWHYIPRHHPYGDDYCGQGTQVTVSS"
  polyreactivity (PSR sort gate): "low polyreactivity"
- RESIDUE SEQUENCE: "QVQLVESGGGLVQAGGSLRLSCAASGRIFSGYAMGWYRQAPGKERELVAAITSGGSTNYADSVKGRFTISRDNAKNTVYLQMNSLKPVDTAVYYCAKYYFQYKHDYWGQGTQVTVTS"
  polyreactivity (PSR sort gate): "low polyreactivity"

====

assay: yeast display, Sf9 membrane polyspecificity reagent, FACS + sequencing; frameworks hold sequencing errors

- RESIDUE SEQUENCE: "QVQLVESGGGLVQAGGSLRLSSPASGSIYRKYGMGSYRQAPGKERELVATITSSGGSTYYADSVKGRFSISRDNAKKTVYLQMNSLKPEDTAVYYCAADYYYLPGSYQVRAMYYWGQGTQVTVSS"
  polyreactivity (PSR sort gate): "high polyreactivity"
- RESIDUE SEQUENCE: "QVQLVESGGGLVQAGGSLRLSCAASGITFERYTMGWYRQAPGKERELVAAIRGSGGTYYADSVKGRFTISRDNAKNTVYLQMNSLKPEDTAVYYCAARYSYRYGVVYGTLHGYWGQGTQVTVSS"
  polyreactivity (PSR sort gate): "high polyreactivity"
- RESIDUE SEQUENCE: "QVQLVESGGGLVQAGRSLRLSCAASGSIFGWNAMGWYRQAPGKERELVAAINGGDRTNYADSVKGRFTISRDNAKNTVYLQMNSLNTEDTAVYYCGKDFYPTRPGWGGGEYNYWGQGTQVTVSS"
  polyreactivity (PSR sort gate): "low polyreactivity"
- RESIDUE SEQUENCE: "QVQLVESGGGLVQAGGSLRLSCAASGSIFKPYAMGWYRQAPGKERELVAAISRSGSTYYADSVKGRFTISRDNAKNTVYLQMNSLKPEDTAVYYCAKDVRPNYYAAFNYWGQGTQVTVSS"
  polyreactivity (PSR sort gate): "low polyreactivity"

====

test: yeast display, Sf9 membrane polyspecificity reagent, FACS + sequencing; frameworks hold sequencing errors
TEST READOUT: polyreactivity (PSR sort gate)

Solved cases (5 shown):
- RESIDUE SEQUENCE: "QVQLVESGGGLVQAGGSLRLSCAASGRIFKNYAMGWYRQAPGKERELVAAISRSGGRTYYADSVKGRFTISRDNAKNTVYLQMNSLKPEDTAVYYCAADVDYRYSKIYKWTYDYWGQGTQVTVSS"
  polyreactivity (PSR sort gate): "high polyreactivity"
- RESIDUE SEQUENCE: "QVQLVESGVGLVKAGGSLRLSCAASGSTFRGYAMGWYRQAPGKERELVAAITYISDTTNYADSVKGRFTISRDNAKNTVYLQMNSLKPDDTAVYYCNAYYDGVWRYTSQETGDHWGQGTQVTVSS"
  polyreactivity (PSR sort gate): "low polyreactivity"
- RESIDUE SEQUENCE: "QVQLVESGGGLVQAGGRLRLSCAASGSTFLVYAMGWYRQAPGKERELVAAIDSGVSTYYADSVKGLFTISRDNAKNTVYLQMNSLKPEDTAVYYCNGYDYWGQGTQVTVSS"
  polyreactivity (PSR sort gate): "low polyreactivity"
- RESIDUE SEQUENCE: "QVQLVESGGGLVQAGGSLRLSCAASGFIFFTYAMGWYRQAPGKVRELVAAITSRGGRTYYADSVKGRFTISRDNAKNTVYLQMNILKPEDTAVYYCAVDPVRRYRYDYWGQGTQVTVSS"
  polyreactivity (PSR sort gate): "low polyreactivity"
- RESIDUE SEQUENCE: "QVQLVESGGGLVQAGGSLRLSCAASGITFVDNAMGWYRQAPGKERELVAVISSSGGSTYYADSVKGRFTISRDNAKNTVYLQMNSLKPEDTAVYYCAARNRFYRRPYDYWGQGTQVTVSS"
  polyreactivity (PSR sort gate): "high polyreactivity"

// polyreactivity (PSR sort gate) lookup, key: QVQLEESGGGLVQAGGTLRLSCAASGLNFSYNAMGWYRQAPGKERELVAAISYSGGSTYYPDSVKGRFTISRDNAKNTVYLQMNSLKPEDTAVYYCASDAWWLYYGYYYWGQGTQVTLSS high polyreactivity

// polyreactivity (PSR sort gate) lookup, key: QVQLVETGGGLVQAGGSLRLSCAASGITFWYYAMGCDRQAPGKERELVAVISRGGSTYYADSVKGRFTISRDNAKNTVYLQMNSLKPEDTAVYYCAARPRWYTYNRQEYDYWGQGTQVTLSS high polyreactivity

// polyreactivity (PSR sort gate) lookup, key: QVQLVESGGGLDQAGGSLRLSCAASGSIFVYYAMGWYRHAPGKEMELVAAITSGTSTNYADSVKGRFTISRDNAQNTVYLQMNSLKPEDTAVYYCAADHYYTGTTYNYWGQGNQVTVSS low polyreactivity

// polyreactivity (PSR sort gate) lookup, key: QVQLVESGGGLVQAGGSLRLSCAASGSTFYVYAMGWYRQAPGKERELVASINSGGITNYADSVKGRFTISRDNAKNTVYLQMNSLKPEDTAVYYCAARSYKTGRYPQRNKYYYWGQGTQVTVSS high polyreactivity

// polyreactivity (PSR sort gate) lookup, key: QVQHVESGGGLVQAGGSLRLSCAASVRTFYTYAMGRDRQAPGKERELVAAISLSGTRTYYADSVKGRFTISRDNAKNTVYLQMNSLNPEDTAVYYCAADRFNKPYYYWGQGTQVTVSS high polyreactivity

// polyreactivity (PSR sort gate) lookup, key: QVQLVESGGGLVQAGGSLRLSCAASGSIFFYNTMGWYRQAPRKERELVAAISSSGRTYYADSVKGRFTISRDNAKNTVYLQMNSLKPEDTAVYYCAKRTWRGYDYWGQGTQVTVSS high polyreactivity

// polyreactivity (PSR sort gate) lookup, key: QVQLVESGGGLVQAGGSLRLTCAASGFTFGEYAMGWYRQAPGKERELVAVITSGGGRTYYADSVKGRFTISRDNAKNNVYLEMNSLNPEDTAAYYCAAQPKPQLERKDDYWGQGTQVTVSS high polyreactivity

// polyreactivity (PSR sort gate) lookup, key: QVQLVESGGGLVQAGGSLRLSCAASGSTFFTYTMGWYRQAPGKERELVAAISSGGSTYYADSVKGRFTISRDNAKNTVYLQMNSLKPEDTAVYYLLRGQGTQVTVSS low polyreactivity
